# system_name: Human α-thrombin (human, UniProt P00734 328-363; P00734 364-622)
# protocol_summary: inhibition of thrombin-catalysed hydrolysis of chromogenic substrate S-2366, 25 °C
No end group written: not given here.
A collection of binders and their measured Ki
Write the value in nM as a bare number.

# count of solved cases: 2
Return value of Ki for input IRFTDGEGTPNPESHNNGDFEEIPEEYLQ (ends and bridges not checked; also: uniformly 15N-labelled, Linker HV2(42-53); Uniformly 15N-labelled for the NMR work; also called mini-hirudin 2) [MH2] , no commentary.
34

Return value of Ki for input IRFTDGSGSGSGSGSGSGDFEEIPEEYLQ (ends and bridges not checked, (GS)6 linker) [MH2-allGS] , no commentary.
30

# input for lookup
Return value of Ki for input IRFTDGEGTGSGSGSGSGDFEEIPEEYLQ (ends and bridges not checked, GEGT(GS)4 linker; comparative control) [MH2-GS] , no commentary.
27
